# Test Conditions: human liver S9, 1 mg/mL; unit not given
Quantity Name: CLint

>>> df
                                   molecule  value_reported
0  CS(=O)(=O)Nc1cccc(-c2ccc(C(=O)c3cc(F)c(F)c(O)c3F)s2)c1            27.7
1  Cn1cnc(S(=O)(=O)Nc2cccc(-c3ccc(C(=O)c4cc(F)c(F)c(O)c4F)s3)c2)c1            27.9
2  O=C(c1ccc(-c2ccc(O)cc2)s1)c1cc(F)c(F)c(O)c1F            25.3
3  Cc1cc(-c2ccc(C(=O)c3cccc(O)c3)s2)ccc1O [Compound F1, reference compound]           193.8
4  Cc1c(N)cccc1-c1ccc(C(=O)c2cc(F)c(F)c(O)c2F)s1            33.3
5  COc1c(Cl)cc(-c2ccc(C(=O)c3c(F)ccc(O)c3F)s2)cc1Cl            38.3

1 = O=C(c1ccc(-c2cccc(Cl)c2)s1)c1c(F)ccc(O)c1F
2 = O=C(c1ccc(-c2cccc3[nH]ccc23)s1)c1cc(F)c(F)c(O)c1F
3 = Cc1cc(C(=O)c2c(F)ccc(O)c2F)sc1-c1ccc(O)c(Cl)c1
Sort by CLint, descending. Use the labels to give the requested order.
3, 1, 2
(3: 241.4, 1: 160.7, 2: 14.2)

The reported numbers originate from patent US9884839B2.
